# Tested on: NCI-H522
# ASSAY PROTOCOL: relative viability (nuclei count vs DMSO), 5 days (fraction); higher = more cells survive
# COND: first compound 0.04 µM
So I've got a bunch of molecules here, and I need their relative viability values.
One number for each entry.

COc1cc(N2CCC(C(N)=O)CC2)ccc1Nc1nc(N)c(Cl)c(Nc2ccccc2S(=O)(=O)C(C)C)n1 [HG-5-88-01] + NC(=O)Nc1cc(-c2cccc(F)c2)sc1C(=O)N[C@H]1CCCNC1 [AZD7762] (partner 0.2 µM)	0.795
Clc1ccc(Nc2nnc(Cc3ccncc3)c3ccccc23)cc1 [Vatalanib] + Cc1cc(Nc2cc(N3CCN(C)CC3)nc(Sc3ccc(NC(=O)C4CC4)cc3)n2)n[nH]1 [Tozasertib] (partner 0.1 µM)	0.565
COc1cc(N2CCC(C(N)=O)CC2)ccc1Nc1nc(N)c(Cl)c(Nc2ccccc2S(=O)(=O)C(C)C)n1 [HG-5-88-01] + CC(=O)c1c(C)c2cnc(Nc3ccc(N4CCNCC4)cn3)nc2n(C2CCCC2)c1=O [Palbociclib] (partner 0.5 µM)	1.06

Shifting focus to the molecule that follows.
Q. Which relative viability value belongs to COc1cc(N2CCC(C(N)=O)CC2)ccc1Nc1nc(N)c(Cl)c(Nc2ccccc2S(=O)(=O)C(C)C)n1 [HG-5-88-01] + Cc1cc(Nc2cc(N3CCN(C)CC3)nc(Sc3ccc(NC(=O)C4CC4)cc3)n2)n[nH]1 [Tozasertib] (partner 0.1 µM) ?
A. 0.567

###

# System: CAL-12T
# ASSAY PROTOCOL: relative viability (nuclei count vs DMSO), 5 days (fraction); higher = more cells survive
# COND: first compound 0.1265 µM
MEASURE NAME: relative viability
One number for each entry.

Clc1ccc(Nc2nnc(Cc3ccncc3)c3ccccc23)cc1 [Vatalanib] + Cc1cc(Nc2cc(N3CCN(C)CC3)nc(Sc3ccc(NC(=O)C4CC4)cc3)n2)n[nH]1 [Tozasertib] (partner 0.1 µM)	0.297
Clc1ccc(Nc2nnc(Cc3ccncc3)c3ccccc23)cc1 [Vatalanib] + C[C@@H](Oc1cc(-c2cnn(C3CCNCC3)c2)cnc1N)c1c(Cl)ccc(F)c1Cl [Crizotinib] (partner 1 µM)	0.523
Clc1ccc(Nc2nnc(Cc3ccncc3)c3ccccc23)cc1 [Vatalanib] + N=C(N)NC(=N)NCCc1ccccc1 [Phenformin] (partner 250 µM)	0.495

Below are some compounds; for each one, tell me its relative viability.
1. Clc1ccc(Nc2nnc(Cc3ccncc3)c3ccccc23)cc1 [Vatalanib] + O=C(CCCCCCC(=O)Nc1ccccc1)NO [Vorinostat] (partner 1 µM)
2. COc1cc(N2CCC(C(N)=O)CC2)ccc1Nc1nc(N)c(Cl)c(Nc2ccccc2S(=O)(=O)C(C)C)n1 [HG-5-88-01] + COc1cccc2cc(-c3nc([C@H]4CC[C@H](C(=O)O)CC4)n4ncnc(N)c34)[nH]c12 [OSI-027] (partner 0.5 µM)

A.
1. 0.714
2. 0.672

###

# System: SW 900
# ASSAY PROTOCOL: relative viability (nuclei count vs DMSO), 5 days (fraction); higher = more cells survive
# COND: first compound 0.04 µM
Checkbox rule: relative viability lower than 0.5 = Fulfilled; relative viability not lower than 0.5 = Not fulfilled.

These solved cases illustrate the format of a correct answer.
COc1cc(N2CCC(C(N)=O)CC2)ccc1Nc1nc(N)c(Cl)c(Nc2ccccc2S(=O)(=O)C(C)C)n1 [HG-5-88-01] + O=C(c1cc(Cc2n[nH]c(=O)c3ccccc23)ccc1F)N1CCN(C(=O)C2CC2)CC1 [Olaparib] (partner 8 µM)	Not fulfilled
C[C@@H]1CN(CC(=O)Nc2ccc3c(c2)Cc2cccc(-c4cc(=O)cc(N5CCOCC5)o4)c2S3)C[C@H](C)O1 + Nc1nc2[nH]cc(CCc3ccc(C(=O)N[C@@H](CCC(=O)O)C(=O)O)cc3)c2c(=O)[nH]1 [Pemetrexed] (partner 0.2 µM)	Fulfilled
COc1cc(N2CCC(C(N)=O)CC2)ccc1Nc1nc(N)c(Cl)c(Nc2ccccc2S(=O)(=O)C(C)C)n1 [HG-5-88-01] + NC(=O)Nc1cc(-c2cccc(F)c2)sc1C(=O)N[C@H]1CCCNC1 [AZD7762] (partner 0.2 µM)	Not fulfilled
C[C@@H]1CN(CC(=O)Nc2ccc3c(c2)Cc2cccc(-c4cc(=O)cc(N5CCOCC5)o4)c2S3)C[C@H](C)O1 + CCNC(=O)c1noc(-c2cc(C(C)C)c(O)cc2O)c1-c1ccc(CN2CCOCC2)cc1 [Luminespib] (partner 0.01 µM)	Fulfilled

From here, focus on the item given below.
Q. # check: relative viability < 0.5 for COc1cc(N2CCC(C(N)=O)CC2)ccc1Nc1nc(N)c(Cl)c(Nc2ccccc2S(=O)(=O)C(C)C)n1 [HG-5-88-01] + CC(=O)c1c(C)c2cnc(Nc3ccc(N4CCNCC4)cn3)nc2n(C2CCCC2)c1=O [Palbociclib] (partner 0.5 µM)
A. Not fulfilled
